Tested on: SR leukemia
assay.explanation: NCI tumour cell line growth inhibition, 48 h; in the data active = GI50 below about 0.43 µM; inactive = the rest
Outcomes: True = active, False = inactive

[[record]]
compound = "CCCCN1C=CCN(CCCC)C1"
group_label = "False"

[[record]]
compound = "CCC(=O)OCC1OC(n2cnc3c(=S)nc(N)[nH]c32)C(OC(=O)CC)C1OC(=O)CC (stereo not given)"
group_label = "False"

[[record]]
compound = "Cc1ccc(N(CC(=O)Nc2ccc(S(=O)(=O)NC3CCN(C)CC3)cc2)S(=O)(=O)c2ccc(Cl)cc2)cc1"
group_label = "False"

[[record]]
compound = "CC(c1ccccc1)N1C(=O)CSC1=S (stereo not given)"
group_label = "True"

[[record]]
compound = "C=C1C(O)C2C(=C(CC(C)C)C13CC3)C(=O)C(C)(C)C2O (stereo not given)"
group_label = "False"

[[record]]
compound = "O=C(/C=C/c1c(-c2ccccc2)[nH]c2ccccc12)S(=O)(=O)c1ccccc1"
group_label = "False"

[[record]]
compound = "Nc1nc(SCc2ccccc2)nc2[nH]ncc12"
group_label = "False"

[[record]]
compound = "CCOC(=O)c1cc(C(=O)c2cc(OC)cc(OC)c2)n2nc(C)ccc12"
group_label = "True"

[[record]]
compound = "CCCCc1ccc(NS(=O)(=O)c2cc3c4c(c2)CCN4C(=O)CC3)cc1"
group_label = "False"

[[record]]
compound = "COc1ccccc1/C=C/C(=O)c1ccc(Nc2nc(Nc3ccc(F)cc3)nc(Nc3ccc(F)cc3)n2)cc1"
group_label = "False"


Origin of the recorded values: PubChem BioAssay (NCI)
